Test system: TK-10
ASSAY TEXT: NCI tumour cell line growth inhibition, 48 h
The source made the active and inactive calls. Cut-off read from the data, not from the text of the source: active = GI50 up to about 1.1 µM and inactive = higher.
PROPERTY MEASURED: GI50

Cc1cc(N(CCC#N)CCC#N)ccc1/C=C(/NC(=O)/C=C/c1ccccc1)C(N)=O; > 100 µM (inactive)

Please turn your attention to the following entry.
Query: Recorded GI50 for O=C1Nc2cc(Cl)ccc2N=CC1NC(=O)C(c1ccccc1)c1ccccc1Cl (centres undefined) , please?
Result: > 100 µM (inactive)

---

Tested on: SK-OV-3
ASSAY TEXT: NCI tumour cell line growth inhibition, 48 h
The source made the active and inactive calls. Rule as the data show it: active = GI50 up to about 1.1 µM and inactive = higher.
PROPERTY MEASURED: GI50

Known GI50 results, listed for orientation:
N#CCCN(CCC#N)c1ccc(C(=N/c2ccc(F)cc2)/N=N/c2ccccc2)cc1; > 100 µM (inactive)
Cc1ccc(CCNC(=S)SCC(NC(=O)CCC(N)C(=O)O)C(=O)NCC(=O)O)cc1 (centres undefined); 7.4 µM (inactive)
O=C1NC(N2CCCCC2)=N/C1=C\c1ccc(Cl)cc1; > 100 µM (inactive)

Query: Record request: GI50 value, item CC1(C=O)CCC23COC4(CCC5C6(C)CCC(OC7OCC(OC8OC(CO)C(O)C(OC9OC(CO)C(O)C(O)C9O)C8OC8OCC(O)C(O)C8O)C(O)C7OC7OC(CO)C(O)C(O)C7O)C(C)(C)C6CCC5(C)C4(C)CC2O)C3C1 (centres undefined)
Result: 1.28 µM (inactive)

Query: Any idea what its GI50 is? The molecule is c1c2c(cc3c1OCO3)-c1cc3ccc4c(c3c[n+]1CC2)OCO4 [COPTISINE CHLORIDE]
Result: 3.3 µM (inactive)

Query: Reported GI50 for `Cc1cc(=O)oc2cc(OCc3nc4ccccc4c(=O)n3-c3ccccc3)ccc12` : what is it?
Result: 53.6 µM (inactive)

Query: Please give the measured GI50 for this molecule: `O=C(CSc1nnc(-c2ccccn2)s1)N/N=C/c1ccc([N+](=O)[O-])cc1`
Result: 35.2 µM (inactive)

Query: Fill in: GI50 of `Nc1onc2c1Cc1c(noc1N)-c1ccccc1-2` is ___
Result: 45.1 µM (inactive)

Query: Consider the molecule CCOC1NC(=O)Oc2ccccc21 (centres undefined) and give its measured GI50.
Result: > 100 µM (inactive)

---

System: HCT-116
ASSAY TEXT: NCI tumour cell line growth inhibition, 48 h
Activity calls are given as the source filed them. Rule as the data show it: active = GI50 up to about 1.1 µM and inactive = higher.
Catalogue of GI50 readings, one per entry.

O=C1NC(N2CCCCC2)=N/C1=C\c1ccc(Cl)cc1; 26.5 µM (inactive)

Query: Record `CC[P+](C#Cc1ccccc1)(c1ccccc1)c1ccccc1` : what is its GI50 with HCT-116?
Result: 1.77 µM (inactive)

Query: Checklist item: GI50 tested on HCT-116, entry `CC(=O)O[C@H]1C(=O)[C@@]2(C)[C@H]([C@H](OC(=O)c3ccc([N+](=O)[O-])cc3)[C@]3(O)C[C@H](OC(=O)[C@H](O)[C@@H](NC(=O)c4ccccc4)c4ccccc4)C(C)=C1C3(C)C)[C@]1(OC(C)=O)CO[C@@H]1C[C@@H]2O` , value?
Result: > 25 µM (inactive)

---

System: M19-MEL
ASSAY TEXT: NCI tumour cell line growth inhibition, 48 h
Calls of active or inactive are those of the source. Rule as the data show it: active = GI50 up to about 1.1 µM and inactive = higher.
In this section, each of the molecules is paired with its reported GI50.

N#CC(/C(=N/NC(=N)N)C(=O)Nc1ccccc1[N+](=O)[O-])c1nc(-c2ccc([N+](=O)[O-])cc2)cs1 (configuration not stated); > 100 µM (inactive)
CCC(=C(c1ccc(OCc2ccccc2)cc1)c1ccc(OCc2ccccc2)cc1)c1ccc(OC)cc1; > 100 µM (inactive)
COC1/C=C/OC2(C)Oc3c(C)c(O)c4c(c3C2=O)C(=O)C=C(NC(=O)/C(C)=C\C=C\C(C)C(OC=O)C(C)C(O)C(C)C(OC(C)=O)C1C)C4=O (configuration not stated); 13.1 µM (inactive)

Query: For the molecule CC1=NN(C(=O)Nc2ccc(Cl)cc2)C(=O)C2CCC(=O)N12 (configuration not stated) , what GI50 is on record?
Result: > 100 µM (inactive)

Query: Would you mind telling me what GI50 value was observed for `CCOC(=O)C(=Cc1ccc(C(=O)OC)cc1)C(=O)OCC` ?
Result: 2.75 µM (inactive)
